# assay-target: Vanilloid receptor (Rattus norvegicus, UniProt Q9ERZ8+Q9WUD2+O35433)
# method-summary: Antagonistic activity against vanilloid receptor as concentration to reduce the response to […] by 50% from neonatal rat culture spinal sensory neurons using [Ca2+] -influx assay
# Assay type: functional
Kindly apply the following: true (1) if IC50 is less than 3 nM, false (0) in every other case.

Look over these answered cases.
COc1cc(CCCN(CCc2ccccc2)/C(S)=N/CCc2ccc(Cl)cc2)ccc1O ... true (1)
CCCCN(CCCc1ccc(O)c(OC)c1)/C(S)=N/CCc1ccccc1 ... false (0)
CC(C)N(CCCc1ccc(O)c(O)c1)/C(S)=N/CCc1ccccc1 ... false (0)
CCN(CCCc1ccc(O)c(OC)c1)/C(S)=N/CCc1ccccc1 ... false (0)
COc1cc(CCCN(CCc2ccc([N+](=O)[O-])cc2)/C(S)=N/CCc2ccccc2)ccc1O ... true (1)

I wonder whether COc1cc(CCCN(CCc2ccc(C)cc2)/C(S)=N/CCc2ccccc2)ccc1O has IC50 below 3 nM. Can you tell?
true (1)

I wonder whether COc1cc(CCCN(CCc2ccccc2)/C(S)=N/CCc2ccc(F)cc2)ccc1O has IC50 below 3 nM. Can you tell?
false (0)

I wonder whether COc1cc(CCCN(CCCc2ccccc2)/C(S)=N/CCc2ccccc2)ccc1O has IC50 below 3 nM. Can you tell?
false (0)

I wonder whether CCCN(CCCc1ccc(O)c(OC)c1)/C(S)=N/CCc1ccccc1 has IC50 below 3 nM. Can you tell?
false (0)
